Each recorded value in this set is attributed to patent US7132546B2.

What melting point was measured for each of the following?

Could you share which melting point value was measured for O=C(Nc1ccc(Oc2ccc(C(F)(F)F)cn2)c(Cl)c1)c1cc(Cl)cc(Cl)c1O [compound 16] ? 176 to 178 °C

Find the recorded melting point belonging to Cc1cc(NC(=O)c2cc([N+](=O)[O-])ccc2Cl)ccc1Oc1ncc(C(F)(F)F)cc1Cl [Compound No. 106] and report it. 230 to 232 °C

Recorded melting point of O=C(Nc1ccc(OCC23CC4CC(CC(C4)C2)C3)cc1)c1cc([N+](=O)[O-])ccc1Cl [compound 110] , please. 175 to 180 °C

Given O=C(Nc1ccc(Oc2ncc(C(F)(F)F)cc2Cl)cc1)c1cc([N+](=O)[O-])ccc1F [compound 98] , state its recorded melting point. 168 to 170 °C

# get_value(readout='melting point', item= COC(=O)c1cccc(C(=O)Nc2ccc(C34CC5CC(CC(C5)C3)C4)cc2C)c1 [compound 34] ) 184 °C

What measured melting point goes with O=C(Nc1ccc(Oc2ccc(C(F)(F)F)cn2)c(Cl)c1)c1cccc(C(F)(F)F)c1 [compound 7] ? 127 to 129 °C

Which melting point is reported for this compound? Cc1cc(C23CC4CC(CC(C4)C2)C3)ccc1NC(=O)c1cc([N+](=O)[O-])ccc1Cl [Compound No. 1] 219 °C

Returns the measured melting point for the input compound. Input: Cc1cc(C23CC4CC(CC(C4)C2)C3)ccc1NC(=O)c1cc(S(C)(=O)=O)ccc1Cl [compound 75] 96 to 100 °C

====

If the reported melting point equals or exceeds 200 °C, assign T. If not, assign F.

# check: melting point of COc1ccc([N+](=O)[O-])c(OC)c1C(=O)Nc1ccc(C23CC4CC(CC(C4)C2)C3)cc1C [compound 52] is greater than or equal to 200 °C F

Textbook exercise: given the entry COC(=O)c1cc(C(=O)Nc2ccc(C34CC5CC(CC(C5)C3)C4)cc2C)cc([N+](=O)[O-])c1 [compound 47] , state whether its melting point is greater than or equal to 200 °C. F

Could you please find out whether O=C(Nc1ccc(Sc2ncc(C(F)(F)F)cc2Cl)cc1)c1cc([N+](=O)[O-])ccc1Cl [compound 59] has melting point that meets 200 °C or exceeds it? F

Check if melting point >= 200 °C (inclusive). Item: O=C(Nc1ccc(/N=N/c2ccccc2)cc1)c1cc([N+](=O)[O-])ccc1Cl [compound 67] F

For this compound, is measured melting point 200 °C or higher? Cc1cc(C23CC4CC(CC(C4)C2)C3)ccc1NC(=O)c1cc(C(F)(F)F)ccc1Cl [compound 70] F

Hi, just wondering whether O=C(Nc1ccc(C23CC4CC(CC(C4)C2)C3)cc1)c1cc([N+](=O)[O-])ccc1Cl [compound 21] shows melting point of 200 °C or higher. T

# bool: melting point of Cc1cc(C23CC4CC(CC(C4)C2)C3)ccc1NC(=O)c1cccc(Cl)c1[N+](=O)[O-] [compound 58] >= 200 °C T

Check if melting point >= 200 °C (inclusive). Item: O=C(Nc1ccc(Oc2ccccc2)cc1)c1cc([N+](=O)[O-])ccc1Cl [Compound No. 27] F

Form field: melting point at least 200 °C? Entry: O=C(Nc1ccc(=O)n(-c2ncc(C(F)(F)F)cc2Cl)c1)c1cc([N+](=O)[O-])ccc1Cl [compound 144] F

Determine whether measured melting point meets or exceeds 200 °C for O=C(Nc1ccc(C(F)(F)F)cc1)c1cc([N+](=O)[O-])ccc1Cl [compound 30] F

Is melting point for CS(=O)(=O)c1ccc(Cl)c(C(=O)Nc2ccc(Oc3ncc(C(F)(F)F)cc3Cl)cc2)c1 [compound 88] at or above 200 °C? T

Threshold query (melting point >= 200 °C) on N#Cc1ccc(Cl)c(C(=O)Nc2ccc(Oc3ccccc3)cc2)c1 [compound 85] F

Tell me whether melting point is at least 200 °C here: Cc1cc(C23CC4CC(CC(C4)C2)C3)ccc1NC(=O)c1c(Cl)ccc([N+](=O)[O-])c1Cl [compound 53] T

Dear colleague, could you confirm whether Cc1cc(C23CC4CC(CC(C4)C2)C3)ccc1NC(=O)c1cc([N+](=O)[O-])ccc1Br [Compound No. 46] has melting point at or above 200 °C? T
